Below, each of the molecules is paired with its reported Ki value.
- system.tested: Cannabinoid receptor 2 (Mus musculus)
- Sequence (P47936 whole entry): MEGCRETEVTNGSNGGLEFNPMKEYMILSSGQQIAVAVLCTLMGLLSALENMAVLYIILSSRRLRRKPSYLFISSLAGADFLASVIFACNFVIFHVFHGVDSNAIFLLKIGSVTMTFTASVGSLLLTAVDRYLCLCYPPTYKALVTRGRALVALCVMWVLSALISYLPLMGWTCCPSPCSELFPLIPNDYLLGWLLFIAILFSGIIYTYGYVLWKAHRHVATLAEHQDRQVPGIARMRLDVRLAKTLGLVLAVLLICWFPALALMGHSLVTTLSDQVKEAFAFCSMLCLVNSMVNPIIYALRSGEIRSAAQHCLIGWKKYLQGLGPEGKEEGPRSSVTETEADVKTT
// units = nM; emit number, no label

Record excerpt, results attached:
CCCCC/C=C/c1cc(O)c2c(c1)OC(C)(C)[C@@H]1CC[C@@H](CO)C[C@@H]21 :: 5.3
CCCCCCCc1cc(O)c2c(c1)OC(C)(C)[C@@H]1CC[C@@H](CO)C[C@@H]21 :: 14.3
CCCCC/C=C\c1cc(O)c2c(c1)OC(C)(C)[C@@H]1CC[C@@H](CO)C[C@@H]21 :: 9.5

Next molecule, Ki to be filled in.
Entry `CCCCCC#Cc1cc(O)c2c(c1)OC(C)(C)[C@@H]1CC[C@@H](CO)C[C@@H]21` , Cannabinoid receptor 2 (Mus musculus) data, Ki value: 61.6

###

Cannabinoid receptor 1 (Rattus norvegicus, UniProt P20272): recorded Ki for assorted molecules
Sequence (P20272 whole entry): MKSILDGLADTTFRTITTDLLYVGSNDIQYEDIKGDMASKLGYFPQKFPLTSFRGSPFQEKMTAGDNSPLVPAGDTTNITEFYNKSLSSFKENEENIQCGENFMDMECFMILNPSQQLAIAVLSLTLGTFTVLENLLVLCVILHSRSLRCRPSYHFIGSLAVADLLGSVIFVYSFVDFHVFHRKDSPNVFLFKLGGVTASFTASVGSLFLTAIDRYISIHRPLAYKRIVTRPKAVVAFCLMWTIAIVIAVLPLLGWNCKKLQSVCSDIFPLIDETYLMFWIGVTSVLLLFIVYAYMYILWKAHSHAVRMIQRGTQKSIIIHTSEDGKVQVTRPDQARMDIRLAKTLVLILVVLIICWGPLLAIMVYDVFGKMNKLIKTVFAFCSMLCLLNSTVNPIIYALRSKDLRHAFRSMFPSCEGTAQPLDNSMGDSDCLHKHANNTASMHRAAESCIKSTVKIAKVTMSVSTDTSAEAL
// units = nM; emit number, no label

Entry `CCCCCC#Cc1cc(O)c2c(c1)OC(C)(C)[C@@H]1CC[C@@H](CO)C[C@@H]21` , Cannabinoid receptor 1 (Rattus norvegicus, UniProt P20272) data, Ki value: 5.8

Entry `CCCCC/C=C\c1cc(O)c2c(c1)OC(C)(C)[C@@H]1CC[C@@H](CO)C[C@@H]21` , Cannabinoid receptor 1 (Rattus norvegicus, UniProt P20272) data, Ki value: 0.8

Entry `CCCCC/C=C/c1cc(O)c2c(c1)OC(C)(C)[C@@H]1CC[C@@H](CO)C[C@@H]21` , Cannabinoid receptor 1 (Rattus norvegicus, UniProt P20272) data, Ki value: 1.2
